Target or system: mAChR M1 (UniProt P11229)
Sequence (P11229 1-460): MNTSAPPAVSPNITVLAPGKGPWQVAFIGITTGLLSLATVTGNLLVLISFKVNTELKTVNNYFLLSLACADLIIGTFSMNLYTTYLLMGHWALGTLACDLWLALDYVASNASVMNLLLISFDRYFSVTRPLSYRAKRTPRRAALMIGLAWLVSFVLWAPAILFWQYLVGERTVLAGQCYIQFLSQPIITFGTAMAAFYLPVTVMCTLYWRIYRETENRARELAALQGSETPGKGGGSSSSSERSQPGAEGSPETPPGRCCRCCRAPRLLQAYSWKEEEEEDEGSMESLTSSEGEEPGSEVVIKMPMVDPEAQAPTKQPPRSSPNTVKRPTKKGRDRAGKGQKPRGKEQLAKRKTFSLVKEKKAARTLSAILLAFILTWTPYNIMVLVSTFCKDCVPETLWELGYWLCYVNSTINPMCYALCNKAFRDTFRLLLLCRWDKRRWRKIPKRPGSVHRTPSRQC
Test details: mAChR M1 cell-based functional assay (calcium mobilization, potentiation of EC20 acetylcholine response)
Cond: maximal response as % of ACh maximum, CHO-K1 cells expressing M1
Property measured: M1 AChmax (%)

# Smiles representation, M1 AChmax (%)
records = [
    ("Cn1cc(-c2cc(F)c(CN3Cc4ccc5ncnn5c4C3=O)c(F)c2)cn1", 85.3),
    ("Cc1nnc2ccc3c(n12)C(=O)N(Cc1ccc(-c2ccc4nn(C)cc4c2)cc1F)C3", 83),
    ("Cc1nnc2ccc3c(n12)C(=O)N(Cc1c(F)cc(-c2cnn(C)c2)cc1F)C3", 79),
]
